Catalogue of molecules with associated relative viability
# Test system: HCC-827
# Test protocol: relative viability (nuclei count vs DMSO), 5 days (fraction); higher = more cells survive
# Assay setup: first compound 0.03162 µM
Reply: number alone, nothing else.

CCN(CC)CCCCNc1ncc2cc(-c3cc(OC)cc(OC)c3)c(NC(=O)NC(C)(C)C)nc2n1 + CS(=O)(=O)N1CCN(Cc2cc3nc(-c4cccc5[nH]ncc45)nc(N4CCOCC4)c3s2)CC1 [Pictilisib] (partner 1 µM) = 0.992

Read the next record carefully.
Prompt: Would you mind telling me what relative viability value was observed for CCN(CC)CCCCNc1ncc2cc(-c3cc(OC)cc(OC)c3)c(NC(=O)NC(C)(C)C)nc2n1 + CC1(C)CCC(c2ccc(Cl)cc2)=C(CN2CCN(c3ccc(C(=O)NS(=O)(=O)c4ccc(N[C@H](CCN5CCOCC5)CSc5ccccc5)c(S(=O)(=O)C(F)(F)F)c4)cc3)CC2)C1 [Navitoclax] (partner 0.5 µM) ?
Completion: 0.981

Origin of values: the supplement of paper PMC10307832
